- assay.system: Serine/threonine-protein kinase 24 (Homo sapiens, UniProt Q9Y6E0)
- Sequence (Q9Y6E0 whole entry): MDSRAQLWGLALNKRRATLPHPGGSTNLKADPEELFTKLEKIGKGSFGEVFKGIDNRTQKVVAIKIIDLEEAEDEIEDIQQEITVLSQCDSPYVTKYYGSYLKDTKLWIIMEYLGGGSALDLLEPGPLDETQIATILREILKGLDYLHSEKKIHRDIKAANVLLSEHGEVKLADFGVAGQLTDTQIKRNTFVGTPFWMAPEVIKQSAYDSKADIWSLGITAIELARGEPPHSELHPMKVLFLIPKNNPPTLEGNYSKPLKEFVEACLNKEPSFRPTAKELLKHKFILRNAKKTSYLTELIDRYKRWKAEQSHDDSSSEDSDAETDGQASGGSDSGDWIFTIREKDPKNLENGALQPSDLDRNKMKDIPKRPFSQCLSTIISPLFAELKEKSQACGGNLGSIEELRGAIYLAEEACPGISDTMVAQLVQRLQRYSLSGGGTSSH
- assay.protocol: Inhibition of MST3 (unknown origin) expressed in lysed HEK293T cells using NanoGlo as substrate incubated for 20 hrs by NanoBRET assay
- Assay type: cell-based
pEC50: −log10 of the molar value.
Note to self: values exactly at 7 are True. So pEC50 at or above 7 is True, below is False.

Decide: is the reported value of pEC50 for COc1cc(N2CCN(C)CC2)ccc1Nc1ncc2cc(-c3ccc(-c4cccc(C)n4)cc3Cl)c(=O)n(CCCCN)c2n1 equal to or greater than 7?
False

Continuing:
Decide: is the reported value of pEC50 for Cc1cccc(-c2ccc(-c3cc4cnc(NCCCN5CCOCC5)nc4n(CCCCN)c3=O)c(Cl)c2)n1 equal to or greater than 7?
True

Decide: is the reported value of pEC50 for Cc1cccc(-c2ccc(-c3cc4cnc(Nc5ccc(CCCO)cc5)nc4n(CCCCN)c3=O)c(Cl)c2)n1 equal to or greater than 7?
True

Decide: is the reported value of pEC50 for Cc1cccc(-c2ccc(-c3cc4cnc(NCCCN5CCNCC5)nc4n(CCCCN)c3=O)c(Cl)c2)n1 equal to or greater than 7?
True

Decide: is the reported value of pEC50 for Cc1cccc(-c2ccc(-c3cc4cnc(Nc5ccc(F)c(CO)c5)nc4n(CCCCN)c3=O)c(Cl)c2)n1 equal to or greater than 7?
True

Decide: is the reported value of pEC50 for Cc1cccc(-c2ccc(-c3cc4cnc(Nc5ccc(O)cc5)nc4n(CCCCN)c3=O)c(Cl)c2)n1 equal to or greater than 7?
True

Decide: is the reported value of pEC50 for CNc1ncc2cc(-c3ccc(-c4cccc(C)n4)cc3Cl)c(=O)n(CCCCN)c2n1 equal to or greater than 7?
True

Decide: is the reported value of pEC50 for Cc1cccc(-c2ccc(-c3cc4cnc(NCCCc5ccc(N)cc5)nc4n(CCCCN)c3=O)c(Cl)c2)n1 equal to or greater than 7?
True

Decide: is the reported value of pEC50 for Cc1cccc(-c2ccc(-c3cc4cnc(Nc5ccc(C)c(O)c5)nc4n(CCCCN)c3=O)c(Cl)c2)n1 equal to or greater than 7?
True

Decide: is the reported value of pEC50 for Cc1cccc(-c2ccc(-c3cc4cnc(NCCCN5CCCC5=O)nc4n(CCCCN)c3=O)c(Cl)c2)n1 equal to or greater than 7?
True

Decide: is the reported value of pEC50 for Cc1cccc(-c2ccc(-c3cc4cnc(Nc5cc(C(F)(F)F)ccc5C)nc4n(CCCCN)c3=O)c(Cl)c2)n1 equal to or greater than 7?
False

meta.source: ChEMBL document CHEMBL5528076
